# target_desc: T1, mfNPR1-mFc:hANP complex (monkey; human, UniProt P01160 124-151)
# T1 construct: also called monkey NPR1 complexed to ANP
# assay_protocol: SPR, mAb captured, 37C
reported_property: 100 nM Ag Bound (RU)
Numeric answer only, unit RU assumed.

Input: Which 100 nM Ag Bound (RU) value belongs to mAb25479 (antibody, human IgG4, V domains shown) VH: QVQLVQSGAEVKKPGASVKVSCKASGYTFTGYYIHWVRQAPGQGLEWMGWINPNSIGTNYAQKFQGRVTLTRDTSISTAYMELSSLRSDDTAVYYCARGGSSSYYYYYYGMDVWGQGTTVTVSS VL: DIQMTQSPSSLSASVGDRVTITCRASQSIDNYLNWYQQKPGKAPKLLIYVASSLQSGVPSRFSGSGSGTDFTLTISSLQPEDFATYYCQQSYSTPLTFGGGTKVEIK ?
Output: 138

Input: Look up 100 nM Ag Bound (RU) for this binder: mAb22809 (antibody, human IgG4, V domains shown) VH: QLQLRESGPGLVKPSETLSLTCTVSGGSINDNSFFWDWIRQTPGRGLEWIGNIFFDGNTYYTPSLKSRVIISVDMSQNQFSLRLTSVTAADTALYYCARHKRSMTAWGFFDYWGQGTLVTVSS VL: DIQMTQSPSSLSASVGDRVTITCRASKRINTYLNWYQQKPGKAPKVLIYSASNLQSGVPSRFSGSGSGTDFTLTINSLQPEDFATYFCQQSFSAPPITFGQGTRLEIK
Output: 106

Input: Bench note: what 100 nM Ag Bound (RU) did mAb25502 (antibody, human IgG4, V domains shown) VH: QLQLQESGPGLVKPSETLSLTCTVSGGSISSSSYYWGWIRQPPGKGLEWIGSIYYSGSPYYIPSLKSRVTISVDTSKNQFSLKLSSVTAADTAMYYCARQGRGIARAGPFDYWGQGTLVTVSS VL: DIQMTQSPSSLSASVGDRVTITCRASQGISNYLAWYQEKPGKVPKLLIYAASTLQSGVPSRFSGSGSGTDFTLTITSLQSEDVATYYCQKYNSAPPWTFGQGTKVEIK show?
Output: 143

Input: So what does the record say about 100 nM Ag Bound (RU) for mAb25491 (antibody, human IgG4, V domains shown) VH: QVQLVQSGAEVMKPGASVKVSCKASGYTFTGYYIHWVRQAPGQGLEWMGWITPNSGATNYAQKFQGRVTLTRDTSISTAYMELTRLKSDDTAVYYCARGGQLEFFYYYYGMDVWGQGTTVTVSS VL: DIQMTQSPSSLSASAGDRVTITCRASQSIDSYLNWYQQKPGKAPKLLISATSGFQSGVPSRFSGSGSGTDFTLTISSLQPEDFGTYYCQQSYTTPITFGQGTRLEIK ?
Output: 148
